System: mCherry-GAL9 expressing U2OS cells
Experiment: GAL9 recruitment assay, U2OS
Assay type: cell-based
Details: EEE 5 µM, calculated mean from >3 independent exp.

| Compound | Gal9 response compared to reference |
| --- | --- |
| COc1nn(C2CCN(C)CC2)cc1Nc1ncc(C(F)(F)F)c(-n2ccc3c(C#N)cccc32)n1 [EEE16] | 0.010 |
| COc1nn(C2CCN(C)CC2)cc1Nc1ncc(F)c(-n2ccc3ccc(C#N)cc32)n1 [EEE14] | 0.058 |
| COc1nn(C2CCNCC2)cc1Nc1ncc(F)c(-c2c[nH]c3ccccc23)n1 [EEE23] | 0.012 |
| COc1nn(C2CCN(CCCO)CC2)cc1Nc1ncc(F)c(-n2ccc3c(C#N)cccc32)n1 [EEE12] | 0.511 |
| CCOc1nn(C2CCN(C)CC2)cc1Nc1ncc(F)c(-n2ccc3c(C#N)cccc32)n1 [EEE13] | 0.023 |
| CCCN1CCC(n2cc(Nc3ncc(F)c(-n4ccc5c(C#N)cccc54)n3)c(OC)n2)CC1 [EEE10] | 0.260 |
| CCOc1nn(C2CCN(C)CC2)cc1Nc1ncc(C(F)(F)F)c(-c2c[nH]c3ccccc23)n1 [EEE15] | 0.014 |
| COc1nn(C2CCNCC2)cc1Nc1ncc(C(F)(F)F)c(-c2c[nH]c3ccccc23)n1 [EEE24] | 0.026 |
| COc1nn(C2CCN(C(C)C)CC2)cc1Nc1ncc(F)c(-n2ccc3c(C#N)cccc32)n1 [EEE9] | 0.254 |
| COc1nn(C2CCNCC2)cc1Nc1ncc(F)c(-n2ccc3c(C#N)cccc32)n1 [EEE4] | 0.572 |
| COc1nn(C2CCN(C)CC2)cc1Nc1ncc(F)c(-n2ccc3c(C#N)cccc32)n1 [EEE8] | 0.490 |
| COc1nn(C2CCN(C)CC2)cc1Nc1ncc(Cl)c(-n2ccc3c(C#N)cccc32)n1 [EEE17] | 0.021 |
| CCN1CCC(n2cc(Nc3ncc(F)c(-n4ccc5c(C#N)cccc54)n3)c(OC)n2)CC1 [EEE11] | 0.317 |

---

System: mCherry-GAL9 expressing 16HBE cells
Experiment: GAL9 recruitment assay, 16HBE
Format: cell-based
Details: EEE 5 µM, calculated mean from >3 independent exp.
// Gal9 response compared to reference lookup, one value per entry

| Smiles Text | Gal9 response compared to reference |
| --- | --- |
| COc1nn(C2CCN(C(C)C)CC2)cc1Nc1ncc(F)c(-n2ccc3c(C#N)cccc32)n1 | 0.533 |
| COc1nn(C2CCN(C)CC2)cc1Nc1ncc(F)c(-n2ccc3c(C#N)cccc32)n1 | 0.638 |
| COc1nn(C2CCNCC2)cc1Nc1ncc(F)c(-c2c[nH]c3ccccc23)n1 | 0.017 |
| COc1nn(C2CCN(CCCO)CC2)cc1Nc1ncc(F)c(-n2ccc3c(C#N)cccc32)n1 | 0.681 |
| COc1nn(C2CCNCC2)cc1Nc1ncc(C(F)(F)F)c(-c2c[nH]c3ccccc23)n1 | 0.035 |
| COc1nn(C2CCNCC2)cc1Nc1ncc(F)c(-n2ccc3c(C#N)cccc32)n1 | 0.501 |
| CCCN1CCC(n2cc(Nc3ncc(F)c(-n4ccc5c(C#N)cccc54)n3)c(OC)n2)CC1 | 0.522 |
| CCOc1nn(C2CCN(C)CC2)cc1Nc1ncc(C(F)(F)F)c(-c2c[nH]c3ccccc23)n1 | 0.010 |
